Tested on: HCT-116 colon
Experiment: NCI-60 one-dose screen, 48 h
Conditions: 10 µM unless noted
Procedure: Growth inhibition of the HCT-116 human tumor cell line is measured as a screen for anti-cancer activity. Cells are grown in 96 well plates and exposed to the test compound for 48 hours. Compounds are tested at a single concentration, which is 10^-5 M for most compounds. The reported endpoint is percent growth (GI% or GIPRCNT), where numbers from 0 - 100% represent growth inhibition, and numbers from -100% - 0 represent cell death. For example, a value of 40 represents 60% growth inhibition. […]
The panel holds about 83,000 compounds, 20% with a hit somewhere; the sample as a whole holds those more often. Calls of active or inactive are those of the source. Rule for the calls: active = growth percent below 10; inactive = the rest.
Pick from YES for active, NO for inactive when you respond.

Please review the entries below; each comes with its answer.
- compound: "CCOC(=O)[C@H](CSSc1ncnc2cc[nH]c12)NC(=O)[C@@H](C)c1ccc2cc(OC)ccc2c1"
  assigned_class: "NO"
- compound: "O=C1Nc2ccc(Br)cc2C1=N/C=c1\\[nH]c(=O)/c(=C/c2ccc(Cl)cc2)s1"
  assigned_class: "NO"
- compound: "Cc1oc2nc[nH]c(=O)c2c1C(=O)/C=C/c1ccc(Cl)cc1"
  assigned_class: "NO"
- compound: "O=C(c1ccccc1)C(Cl)C(Cl)c1ccccc1 (configuration not stated)"
  assigned_class: "YES"
- compound: "NC(=O)NC(=O)/C=C/C(=O)OCCCl"
  assigned_class: "NO"

Request: Outcome? "O=C(Nc1ccc(F)cc1)c1cc([N+](=O)[O-])ccc1O"
Result: NO

Request: Outcome? "COc1ccc([N+](=O)[O-])c(/C=C/C(=O)c2ccccn2)c1"
Result: YES

* * *

tested on: SNB-75 CNS; assay: NCI-60 one-dose screen, 48 h (100 = growth as untreated, 0 = no growth, -100 = all killed); settings: 10 µM unless noted
About 83,000 compounds went through this panel and 20% of them were active in at least one assay; those are over-represented in the sample as a whole.
recorded_metric: growth (%)
Numbers only here, please. The scale is %.

Answered examples (5):
- smiles: "COc1cccc2cc(-c3cc4ccccc4[nH]3)/c(=N/C(=S)Nc3ccccc3)oc12"
  growth / %: -45.3
- smiles: "CCN(CC)CCSc1c2ccc(Cl)cc2nc2ccc(OC)cc12"
  growth / %: 110
- smiles: "NC(=O)NC(=O)/C=C/C(=O)OCCCl"
  growth / %: 80.3
- smiles: "Clc1ccc(-c2nc(-c3ccco3)cn3ccnc23)cc1"
  growth / %: 32
- smiles: "Cc1cc(C)c2c(=O)[nH]c(SCC(=O)Nc3cccc(S(=O)(=O)N(C)C)c3)nc2n1"
  growth / %: 90.7

With SNB-75 CNS as the test system, "Cc1ccc(-c2csc3nc(C)c(CCCl)c(=O)n23)cc1" showed growth of 74.7

With SNB-75 CNS as the test system, "Nc1c(C(=O)c2ccc(F)cc2)sc2nc3c(cc12)CCCC3" showed growth of 85.8

With SNB-75 CNS as the test system, "O=c1c2cccc3c(Nc4ccc(F)cc4)ccc(c32)c2nc3ccccc3n12" showed growth of 70.8

With SNB-75 CNS as the test system, "O=C(Cc1c(F)cccc1Cl)Nc1ccc(S(=O)(=O)Nc2ncccn2)cc1" showed growth of 110

With SNB-75 CNS as the test system, "N#Cc1ccc(NC(=O)c2ccc3cccnc3c2O)cc1" showed growth of 43.8

With SNB-75 CNS as the test system, "COc1ccc(/C=C/C(=O)OCC(=O)NNC(=O)c2ccccc2)cc1OC" showed growth of 78.2

With SNB-75 CNS as the test system, "CS(=O)(=O)N(c1cc(-c2ccc3ncnc(Nc4cccc(Cl)c4)c3c2)cnc1Cl)S(C)(=O)=O" showed growth of -3.18

With SNB-75 CNS as the test system, "O=C(CNC1CCCCC1)Nc1ccc(-c2nc3ccccc3s2)cc1" showed growth of 67.3

With SNB-75 CNS as the test system, "O=C1CCCCC=C1C[N+](=O)[O-]" showed growth of 105

With SNB-75 CNS as the test system, "CCCCCCCC/C=C\CCCCCCCCOc1ccccc1CCOP(=O)(O)OCC[N+](C)(C)C" showed growth of 55.4

With SNB-75 CNS as the test system, "NCCSC(c1ccccc1)(c1ccccc1)c1ccccc1" showed growth of 12.5

With SNB-75 CNS as the test system, "Cc1cc(C(=O)O)c(N)c(C)n1" showed growth of 89.4
